- study_target: 3-oxo-5-alpha-steroid 4-dehydrogenase 2 (Homo sapiens)
- Sequence (P31213 whole entry): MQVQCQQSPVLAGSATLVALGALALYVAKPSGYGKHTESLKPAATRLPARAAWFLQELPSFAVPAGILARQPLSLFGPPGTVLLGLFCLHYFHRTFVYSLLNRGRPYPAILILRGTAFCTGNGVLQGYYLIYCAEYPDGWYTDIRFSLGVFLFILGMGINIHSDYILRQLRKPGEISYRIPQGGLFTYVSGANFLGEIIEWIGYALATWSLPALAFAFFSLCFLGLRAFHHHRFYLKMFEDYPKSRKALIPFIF
- protocol_description: Inhibition of [1-beta-2beta-3H]- -testosterone binding to human steroid 5-alpha-reductase type 2 of BPH tissue at 10 uM
property_measured: pIC50
Lab note: report pIC50 as minus log10 of the concentration in molar units, number only.

pIC50 lookup needed for C[C@]12CCC(=O)C=C1CCC1C2CC[C@]2(C)C(n3cnc4ccccc43)=CCC12 (stereo partly specified) , thanks. 6.32

Source: ChEMBL document CHEMBL1143608
